# TARGET_UNDER_TEST: human JAK2 (a.a. 828-1132) (Homo sapiens (Human))
# PROTOCOL: In vitro JAK kinase assay (HTRF), JAK2
# Type: biochemical
# MEASUREMENT_PARAMETERS: JAK2/JAK1 IC50 ratio, 1 mM ATP
ENDPOINT_LABEL: JAK2/JAK1

[
  {
    "MOLECULE": "N#CCC1(n2cc(-c3ncnc4[nH]ccc34)cn2)CN(C2CCN(C(=O)Nc3ccc(F)cc3C(F)(F)F)CC2)C1 [Compound 2]",
    "TARGET_UNDER_TEST": "human JAK2 (a.a. 828-1132) (Homo sapiens (Human))",
    "MEASURED": ">10"
  },
  {
    "MOLECULE": "CC(C)(O)c1cc(O[C@H]2CC[C@@H](N3CC(CC#N)(n4cc(-c5ncnc6[nH]ccc56)cn4)C3)CC2)nc(C(F)(F)F)c1 [Compound 20]",
    "TARGET_UNDER_TEST": "human JAK2 (a.a. 828-1132) (Homo sapiens (Human))",
    "MEASURED": ">10"
  }
]

Ask: Query for human JAK2 (a.a. 828-1132) (Homo sapiens (Human)): what JAK2/JAK1 does the record show for N#CC[C@]1(n2cc(-c3ncnc4[nH]ccc34)cn2)C[C@H](N2CCC(Oc3cc(CN4CCC[C@@H]4CO)cc(C(F)(F)F)n3)CC2)C1 [Compound 13] ?
Result: >10

====

# TARGET_UNDER_TEST: human JAK2 (a.a. 828-1132) (Homo sapiens (Human), UniProt O60674)
# Sequence (O60674 828-1132): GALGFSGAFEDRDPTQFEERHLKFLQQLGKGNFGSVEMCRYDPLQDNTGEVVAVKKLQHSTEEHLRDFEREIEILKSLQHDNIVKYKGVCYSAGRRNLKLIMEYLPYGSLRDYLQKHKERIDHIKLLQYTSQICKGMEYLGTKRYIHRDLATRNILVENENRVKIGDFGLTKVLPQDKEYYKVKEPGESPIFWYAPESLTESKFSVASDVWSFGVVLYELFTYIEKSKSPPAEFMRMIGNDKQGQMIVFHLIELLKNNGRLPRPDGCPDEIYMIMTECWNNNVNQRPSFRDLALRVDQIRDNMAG
# PROTOCOL: In vitro JAK kinase assay (HTRF), JAK2
# Assay type: biochemical
# MEASUREMENT_PARAMETERS: JAK2/JAK1 IC50 ratio, 1 mM ATP
Recorded JAK2/JAK1 for the following compounds

Sample answers from the record:
[
  {
    "COMPOUND": "N#CCC1(n2cc(-c3ncnc4[nH]ccc34)cn2)CN([C@H]2CC[C@@H](Oc3cc(CN4CC[C@@H](O)C4)cc(C(F)(F)F)n3)CC2)C1",
    "MEASURED": ">10"
  },
  {
    "COMPOUND": "N#CC[C@]1(n2cc(-c3ncnc4[nH]ccc34)cn2)C[C@H](N2CCC(Oc3cc(CCO)cc(C(F)(F)F)n3)CC2)C1",
    "MEASURED": ">10"
  },
  {
    "COMPOUND": "C[C@H](O)CNCc1cc(OC2CCN([C@H]3C[C@](CC#N)(n4cc(-c5ncnc6[nH]ccc56)cn4)C3)CC2)nc(C(F)(F)F)c1",
    "MEASURED": ">10"
  }
]

Ask: JAK2/JAK1 for N#CCC(C1CCN(c2cccc(Cl)n2)C1)n1cc(-c2ncnc3[nH]ccc23)cn1 (single isomer, unassigned) ?
Result: >10

Ask: JAK2/JAK1 for N#CCC(CN1CCN(C(=O)c2ccc(C#N)cc2F)CC1)n1ccc(-c2ncnc3[nH]ccc23)c1 (stereo not drawn) ?
Result: >10

Ask: JAK2/JAK1 for `C[C@H](NC(=O)c1cc(F)c(N2CC(CC#N)(n3cc(-c4ncnc5[nH]ccc45)cn3)C2)cc1F)C(F)(F)F` ?
Result: >10

====

# TARGET_UNDER_TEST: human JAK2 (a.a. 828-1132) (Homo sapiens (Human))
# PROTOCOL: In vitro JAK kinase assay (HTRF), JAK2
# Format: biochemical
# MEASUREMENT_PARAMETERS: JAK2/JAK1 IC50 ratio, 1 mM ATP
Recorded JAK2/JAK1 for the following compounds

[
  {
    "COMPOUND": "N#CCC(C1CCN(c2nc3cccnc3o2)C1)n1cc(-c2ncnc3[nH]ccc23)cn1 (stereo not drawn)",
    "MEASURED": ">10"
  },
  {
    "COMPOUND": "N#CCC1(n2cc(-c3ncnc4[nH]ccc34)cn2)CN([C@H]2CC[C@@H](Oc3cc(CN4CC[C@H](O)C4)cc(C(F)(F)F)n3)CC2)C1",
    "MEASURED": ">10"
  },
  {
    "COMPOUND": "N#CC[C@]1(n2cc(-c3ncnc4[nH]ccc34)cn2)C[C@H](N2CCC(Oc3cc(CN4CC(O)C4)cc(C(F)(F)F)n3)CC2)C1",
    "MEASURED": ">10"
  },
  {
    "COMPOUND": "N#CCC1(n2cc(-c3ncnc4[nH]ccc34)cn2)CN(C2CCN(C(=O)c3ccnc(C(F)(F)F)c3F)CC2)C1",
    "MEASURED": ">10"
  }
]

Ask: JAK2/JAK1 for `C[C@@H](CO)NCc1cc(OC2CCN([C@H]3C[C@](CC#N)(n4cc(-c5ncnc6[nH]ccc56)cn4)C3)CC2)nc(C(F)(F)F)c1` ?
Result: >10

Ask: JAK2/JAK1 for `N#CC[C@]1(n2cc(-c3ncnc4[nH]ccc34)cn2)C[C@H](N2CCC(Oc3cc(CN4CCC[C@H]4CO)cc(C(F)(F)F)n3)CC2)C1` ?
Result: >10
